From: the supplement of paper PMC12636033

- System: WT Max(13-93) synthetic (M65Nle)
- TEST_NAME: PBM 8-mer E-score (E-score (rank enrichment, -0.5 to 0.5)); higher = stronger preferential binding
Whole data set: some 33,000 sequences, median “E-score (rank enrichment, -0.5 to 0.5)” near -0.0075, cut for the highest 2% near 0.23. The list comes from a sample in which the highest values are over-represented; it also holds close analogues and randomly drawn sequences.
REPORTED_ENDPOINT: PBM 8-mer E-score

INSERT INTO measurements (sequence_chain, assayed_target, readout_value) VALUES
  ('GGTGGCAC', 'WT Max(13-93) synthetic (M65Nle)', -0.131),
  ('AATTCATG', 'WT Max(13-93) synthetic (M65Nle)', 0.132),
  ('CAACAGGC', 'WT Max(13-93) synthetic (M65Nle)', -0.126),
  ('TAACAAAA', 'WT Max(13-93) synthetic (M65Nle)', 0.166),
  ('ACGTCGAC', 'WT Max(13-93) synthetic (M65Nle)', 0.0127),
  ('AAGACTCT', 'WT Max(13-93) synthetic (M65Nle)', 0.0105),
  ('CGACGCAA', 'WT Max(13-93) synthetic (M65Nle)', -0.157),
  ('AACAAATA', 'WT Max(13-93) synthetic (M65Nle)', 0.235),
  ('CCACTTAG', 'WT Max(13-93) synthetic (M65Nle)', 0.00666),
  ('CACTATAA', 'WT Max(13-93) synthetic (M65Nle)', -0.0318),
  ('AGTGGCAC', 'WT Max(13-93) synthetic (M65Nle)', 0.0667),
  ('ACGTGAAA', 'WT Max(13-93) synthetic (M65Nle)', 0.279),
  ('ACGTGAAG', 'WT Max(13-93) synthetic (M65Nle)', 0.0785),
  ('TCAGATCA', 'WT Max(13-93) synthetic (M65Nle)', -0.0835),
  ('GACTATAA', 'WT Max(13-93) synthetic (M65Nle)', 0.13),
  ('ATATATAG', 'WT Max(13-93) synthetic (M65Nle)', 0.182),
  ('CCGACTCA', 'WT Max(13-93) synthetic (M65Nle)', -0.185),
  ('GATAACTA', 'WT Max(13-93) synthetic (M65Nle)', 0.235),
  ('GAATATAA', 'WT Max(13-93) synthetic (M65Nle)', 0.179),
  ('AGGATATC', 'WT Max(13-93) synthetic (M65Nle)', 0.084),
  ('CTGTGAAA', 'WT Max(13-93) synthetic (M65Nle)', 0.00343),
  ('ATGTGAAA', 'WT Max(13-93) synthetic (M65Nle)', 0.271),
  ('GATAACCA', 'WT Max(13-93) synthetic (M65Nle)', 0.24),
  ('AAAACAAT', 'WT Max(13-93) synthetic (M65Nle)', 0.259),
  ('CGTGGCAC', 'WT Max(13-93) synthetic (M65Nle)', 0.251),
  ('CGATGCCC', 'WT Max(13-93) synthetic (M65Nle)', -0.19),
  ('CAACAACA', 'WT Max(13-93) synthetic (M65Nle)', 0.237),
  ('CTATTATA', 'WT Max(13-93) synthetic (M65Nle)', 0.0186),
  ('AAATATAA', 'WT Max(13-93) synthetic (M65Nle)', 0.24),
  ('CATAACCA', 'WT Max(13-93) synthetic (M65Nle)', 0.165),
  ('ACGTGAAC', 'WT Max(13-93) synthetic (M65Nle)', 0.0244),
  ('GCCAGATA', 'WT Max(13-93) synthetic (M65Nle)', -0.00267),
  ('ATCGCGGC', 'WT Max(13-93) synthetic (M65Nle)', -0.136),
  ('GCGCTCTA', 'WT Max(13-93) synthetic (M65Nle)', -0.19),
  ('CATAACTA', 'WT Max(13-93) synthetic (M65Nle)', 0.167),
  ('CAATATAG', 'WT Max(13-93) synthetic (M65Nle)', 0.117),
  ('GTCAAGAA', 'WT Max(13-93) synthetic (M65Nle)', 0.12),
  ('ACGTTGTC', 'WT Max(13-93) synthetic (M65Nle)', 0.232),
  ('TATAACCA', 'WT Max(13-93) synthetic (M65Nle)', 0.17),
  ('AACAAGTA', 'WT Max(13-93) synthetic (M65Nle)', 0.0942),
  ('AAACAAAC', 'WT Max(13-93) synthetic (M65Nle)', 0.0359),
  ('AAAAATAC', 'WT Max(13-93) synthetic (M65Nle)', 0.2),
  ('GTATTAAA', 'WT Max(13-93) synthetic (M65Nle)', 0.188),
  ('CTACGGGA', 'WT Max(13-93) synthetic (M65Nle)', 0.0112),
  ('AAAACAAG', 'WT Max(13-93) synthetic (M65Nle)', 0.122),
  ('CATTCCGA', 'WT Max(13-93) synthetic (M65Nle)', 0.0189);
